# Experimental target: serotonin 5-HT2A receptor (Rattus norvegicus, UniProt P14842)
# Construct: Rat cerebral cortex was homogenized in 20 volumes of ice-cold Tris-HCl buffer; from tissue; host or cells: rat brain (cerebral) cortex
# Sequence (P14842 whole entry): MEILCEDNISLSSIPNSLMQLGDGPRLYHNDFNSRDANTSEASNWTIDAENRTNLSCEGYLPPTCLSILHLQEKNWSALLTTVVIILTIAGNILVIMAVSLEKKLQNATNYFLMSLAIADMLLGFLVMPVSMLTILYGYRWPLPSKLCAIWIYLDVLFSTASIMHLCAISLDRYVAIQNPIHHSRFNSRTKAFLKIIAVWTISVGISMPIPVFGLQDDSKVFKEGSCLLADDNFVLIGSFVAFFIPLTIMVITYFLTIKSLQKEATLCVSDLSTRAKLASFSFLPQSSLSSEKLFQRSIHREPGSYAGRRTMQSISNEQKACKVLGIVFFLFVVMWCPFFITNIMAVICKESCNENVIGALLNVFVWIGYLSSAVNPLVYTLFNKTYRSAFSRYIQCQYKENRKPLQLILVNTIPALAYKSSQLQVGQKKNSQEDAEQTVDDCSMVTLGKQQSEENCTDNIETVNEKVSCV
# Assay details: 5-HT2A binding assay ([3H]ketanserin, rat brain cortex)
# Condition info: read-out: Ki±SEM, 5HT2A
Parameter measured: pKi
Convention used: pKi is expressed as -log10 of the molar concentration.

>>> value_reported("c1ccc(-c2nnc(SCCCN3CCN(c4nsc5ccccc45)CC3)o2)cc1")
7.21
>>> value_reported("Fc1ccc2c(C3CCN(CCCSc4nnc(-c5ccccc5)o4)CC3)noc2c1")
7.95
>>> value_reported("Cc1cccc(N2CCN(CCCSc3nnc(-c4ccccc4)o3)CC2)c1C")
6.43
>>> value_reported("c1ccc2c(N3CCN(CCCSc4nnc(-c5ccncc5)o4)CC3)nsc2c1")
6.41
>>> value_reported("Fc1ccc2c(C3CCN(CCCSc4nnc(-c5ccc(C(F)(F)F)cc5)o4)CC3)noc2c1")
7.61

Consider now this further compound.
# lookup: pKi of COc1ccc(-c2nnc(SCCCN3CCC(c4noc5cc(F)ccc45)CC3)o2)cc1
9.66

---

Parameter measured: melting point

Consider the reported melting point for these molecules:
>>> value_reported("Fc1ccc2c(C3CCN(CCCSc4nnc(-c5ccccc5)o4)CC3)noc2c1 [Compound 12]")
"106 to 107 °C"
>>> value_reported("Cc1cccc(N2CCN(CCCSc3nnc(-c4ccccc4)o3)CC2)c1C [Compound 7]")
"86 to 88 °C"
>>> value_reported("c1ccc2c(N3CCN(CCCSc4nnc(-c5ccncc5)o4)CC3)nsc2c1 [Compound 25]")
"93 to 94 °C"
>>> value_reported("Clc1cccc(N2CCN(CCCSc3nnc(-c4ccccc4)o3)CC2)c1Cl [Compound 9]")
"82 to 84 °C"
>>> value_reported("c1ccc(-c2nnc(SCCCN3CCN(c4nsc5ccccc45)CC3)o2)cc1 [Compound 11]")
"69 to 71 °C"
>>> value_reported("Fc1ccc2c(C3CCN(CCCSc4nnc(-c5ccc(C(F)(F)F)cc5)o4)CC3)noc2c1 [Compound 18]")
"122 to 124 °C"

Kindly review the next molecule as well.
So what's the measured melting point for this one? FC(F)(F)c1cccc(N2CCN(CCCSc3nnc(-c4ccccc4)o3)CC2)c1 [Compound 10]
68 to 69 °C

---

# Assay details: in vivo
# Condition info: Kun Ming (KM), mouse, po
# Lookup of reported ED50 keyed by entry
Note: unit mg/kg is implicit; provide only the numeric part.

>>> value_reported("CN1CCN(C2=Nc3cc(Cl)ccc3Nc3ccccc32)CC1 [clozapine]")
92.7

We now examine a further compound.
Give the measured ED50 of O=C(CCCN1CCC(O)(c2ccc(Cl)cc2)CC1)c1ccc(F)cc1 [haloperidol] .
0.22

---

# Experimental target: histamine H1 receptor (Cavia porcellus)
# Construct: Guinea pig cerebellum was homogenized in 20 volumes of ice-cold 50 mM phosphate buffer; from tissue; host or cells: guinea pig cerebellum
# Sequence (P31389 whole entry): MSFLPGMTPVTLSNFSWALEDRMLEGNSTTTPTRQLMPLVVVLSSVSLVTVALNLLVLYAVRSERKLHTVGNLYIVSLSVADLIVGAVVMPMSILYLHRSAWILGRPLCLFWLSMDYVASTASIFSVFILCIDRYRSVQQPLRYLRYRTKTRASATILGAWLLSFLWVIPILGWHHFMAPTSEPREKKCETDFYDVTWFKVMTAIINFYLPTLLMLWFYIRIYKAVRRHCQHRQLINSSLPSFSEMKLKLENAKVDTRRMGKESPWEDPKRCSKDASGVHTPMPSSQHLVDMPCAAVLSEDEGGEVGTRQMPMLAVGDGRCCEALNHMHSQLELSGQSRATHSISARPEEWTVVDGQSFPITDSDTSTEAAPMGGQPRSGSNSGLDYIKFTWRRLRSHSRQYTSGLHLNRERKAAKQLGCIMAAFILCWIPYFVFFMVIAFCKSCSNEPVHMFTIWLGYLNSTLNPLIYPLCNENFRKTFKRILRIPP
# Assay details: Histamine H1 binding assay ([3H]pyrilamine, guinea pig cerebellum)
# Condition info: read-out: Ki±SEM, H1
Parameter measured: pKi
pKi (log units): -log10 of the concentration in mol/L.

// pKi lookup, key: COc1ccc(-c2nnc(SCCCN3CCC(c4noc5cc(F)ccc45)CC3)o2)cc1
7.88

---

# Experimental target: serotonin 5-HT2A receptor (Rattus norvegicus, UniProt P14842)
# Construct: Rat cerebral cortex was homogenized in 20 volumes of ice-cold Tris-HCl buffer; from tissue; host or cells: rat brain (cerebral) cortex
# Assay details: 5-HT2A binding assay ([3H]ketanserin, rat brain cortex)
# Condition info: [3H]ketanserin, rat brain cortex; mean of three experiments; >10000 marked b: Ki not calculated, inhibition at 10 µM too low; read-out: Ki±SEM, 5HT2A
Field 'label' (enum: rule met / rule not met). Set to rule met when Ki is strictly under 0.007 µM; else rule not met.

>>> group_label("Fc1ccc2c(C3CCN(CCCSc4nnc(-c5ccc(Cl)cc5)o4)CC3)noc2c1 [Compound 16]")
"rule met"
>>> group_label("Fc1ccc2c(C3CCN(CCCSc4nnc(-c5cccs5)o4)CC3)noc2c1 [Compound 24]")
"rule not met"
>>> group_label("Fc1ccc(-c2nnc(SCCCN3CCC(c4noc5cc(F)ccc45)CC3)o2)cc1 [Compound 20]")
"rule not met"
>>> group_label("Fc1ccc2c(C3CCN(CCCSc4nnc(-c5cccc6ccccc56)o4)CC3)noc2c1 [Compound 22]")
"rule met"
>>> group_label("Fc1ccc(-c2nnc(SCCCN3CCN(c4nsc5ccccc45)CC3)o2)cc1 [Compound 19]")
"rule not met"
>>> group_label("COc1ccc(-c2nnc(SCCCN3CCN(c4nsc5ccccc45)CC3)o2)cc1 [Compound 13]")
"rule not met"

// switching to the query molecule
Does this molecule meet the criterion Ki < 0.007 µM? FC(F)(F)c1ccc(-c2nnc(SCCCN3CCN(c4nsc5ccccc45)CC3)o2)cc1 [Compound 17]
rule not met
